I'd be grateful if you could share measured pEC50 for these entries.
molecular target: T1, human CD8 on cells (CD8-overexpressing HEK293T cells, SupT1, HPB-ALL, human T cells, transfected HEK293 of … (human, UniProt P01732 22-235)); assay: flow cytometry on CD8-overexpressing HEK293T cells, non-linear fit of normalized gMFI
T1 construct: whole, on cells; also called cell surface CD8
T1 sequence (P01732 22-235): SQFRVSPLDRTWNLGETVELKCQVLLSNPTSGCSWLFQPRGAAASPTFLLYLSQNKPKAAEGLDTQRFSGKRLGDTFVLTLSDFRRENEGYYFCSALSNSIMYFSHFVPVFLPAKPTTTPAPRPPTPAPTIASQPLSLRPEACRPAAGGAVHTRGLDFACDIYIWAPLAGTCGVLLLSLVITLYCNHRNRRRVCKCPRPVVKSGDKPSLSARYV
Keep in mind that pEC50 stands for -log10 of concentration in molar terms.

Query: Which value of pEC50 has been reported for CBD1040 whole antibody, Fc-silenced human IgG1 (LALAPA) (antibody, V domains shown) VH: QVQLVQSGAEVKKPGASVKISCKASRYTFTDYNLHWVRQAPGQGLEWIGFIYPYNGGTGYAQKFQGRATLTVDYSTSTAYMELSSLRSEDTAVYYCARDHRYNEGVSFDYWGQGTTLTVSS VL: DIQLTQSPSSLSASVGDRATITCRASESVDGFGNSFMNWYQQKPGKAPKLLIYLASNLESGVPSRFSGSGSRTDFTLTISSVQPEDFATYYCQQNNEDPYTFGQGTKLEIKR in the records?
Result: 8.60

Query: Which value of pEC50 has been reported for CBD1037-hIgG1-LALAPA (antibody, V domains shown, also called h1017-H4/L2 whole antibody) VH: QVQLVQSGAEVKKPGASVKVSCKASRYTFTDYNLHWVRQAPGQGLEWMGFIYPYNGGTGYAQKFQGRVTMTVDYSTSTAYMELSSLRSEDTAVYYCARDHRYNEGVSFDYWGQGTTVTVSS VL: DIQLTQSPSSLSASVGDRATITCRASESVDGFGNSFMNWYQQKPGKAPKLLIYLASNLESGVPSRFSGSGSGTDFTLTISSVQPEDFATYYCQQNNEDPYTFGQGTKLEIKR in the records?
Result: 8.62

Query: Which value of pEC50 has been reported for CBD1039 whole antibody, Fc-silenced human IgG1 (LALAPA) (antibody, V domains shown) VH: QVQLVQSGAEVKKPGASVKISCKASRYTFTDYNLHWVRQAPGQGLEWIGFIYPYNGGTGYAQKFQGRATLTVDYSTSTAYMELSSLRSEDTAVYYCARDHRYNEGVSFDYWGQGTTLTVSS VL: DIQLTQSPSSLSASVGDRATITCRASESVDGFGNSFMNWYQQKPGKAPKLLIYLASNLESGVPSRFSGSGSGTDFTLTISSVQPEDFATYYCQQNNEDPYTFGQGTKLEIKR in the records?
Result: 8.36

Query: Which value of pEC50 has been reported for CBD1034 whole antibody, Fc-silenced human IgG1 (LALAPA) (antibody, V domains shown) VH: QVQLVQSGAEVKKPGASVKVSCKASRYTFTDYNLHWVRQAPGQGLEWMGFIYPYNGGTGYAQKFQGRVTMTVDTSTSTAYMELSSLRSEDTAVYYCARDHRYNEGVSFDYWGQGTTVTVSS VL: DIQLTQSPSSLSASVGDRATITCRASESVDGFGNSFMNWYQQKPGKAPKLLIYLASNLESGVPSRFSGSGSRTDFTLTISSVQPEDFATYYCQQNNEDPYTFGQGTKLEIKR in the records?
Result: 8.57

Query: Which value of pEC50 has been reported for CBD1017ch whole antibody (chimeric CT8 antibody) (antibody, V domains shown, Chimeric antibody comprising the variable regions of the donor antibody CT8; detected with anti-human Fc) VH: EVQLQQSGPELVKPGASVKISCKASRYTFTDYNLHWVKLSHEKSLEWIGFIYPYNGGTGYNQKFKNKAKLTVDYSSSTAYMELRSLTSVDAAVYYCARDHRYNEGVSFDYWGQGTTLTVSS VL: NIVLTQSPASLAVSLGQRATISCRASESVDGFGNSFMNWYQQKPGQSPKLLIYLASNLESGVPARFSGSGSRTDFTLTIDPVEADDAATYYCQQNNEDPYTFGGGTKLEIK in the records?
Result: 8.56
